Values from ChEMBL document CHEMBL1133826

Organism: Homo sapiens
Test: Concentration required for 50% inhibition of binding against C3a receptor induced calcium mobilization in human neutrophil
Assay type: functional, organism-based
MEASUREMENT_NAME: IC50 (µM)
Give your result in µM as a bare value.

Exercise: Item under review: Cc1ccc(CC/N=C2\N=C(NCCc3ccc(C)cc3)c3ccccc32)cc1 . Reported IC50?
Solution: 3.3

Exercise: Request: Clc1ccc(CC/N=C2\N=C(NCCc3ccc(Cl)cc3)c3ccccc32)cc1
Solution: 8.2

Exercise: Let us now turn to Cc1ccc(C/N=C2\N=C(NCc3ccc(C)cc3)c3ccccc32)cc1
Solution: 2

Exercise: And for Clc1cccc(CC/N=C2\N=C(NCCc3cccc(Cl)c3)c3ccccc32)c1 ?
Solution: 5.4

Exercise: Query COc1ccc2c(c1)/C(=N/CCc1ccc(C)cc1)N=C2NCCc1ccc(C)cc1 next
Solution: 3.8

Exercise: Then this molecule: Fc1ccc(CC/N=C2\N=C(NCCc3ccc(F)cc3)c3ccccc32)cc1
Solution: 3.1

###

System: Rattus norvegicus
Experiment: Percent inhibition against C3a receptor induced wheal formation in rat at the dose of 30 mg/Kg administered intraperitoneally
Assign Yes to entries whose inhibition meets or exceeds 60%; assign No to the rest.

Exercise: Is the recorded value of inhibition equal to or greater than 60% for this compound? Fc1ccc(CC/N=C2\N=C(NCCc3ccc(F)cc3)c3ccccc32)cc1
Solution: Yes

Exercise: Query Cc1ccc(C/N=C2\N=C(NCc3ccc(C)cc3)c3ccccc32)cc1 next
Solution: Yes

Exercise: Same thing, different compound: Clc1ccc(CC/N=C2\N=C(NCCc3ccc(Cl)cc3)c3ccccc32)cc1
Solution: No

Exercise: Here is the next compound: Cc1ccc(CC/N=C2\N=C(NCCc3ccc(C)cc3)c3ccccc32)cc1
Solution: No

Exercise: // repeat for Clc1cccc(CC/N=C2\N=C(NCCc3cccc(Cl)c3)c3ccccc32)c1 and report
Solution: Yes

###

Target: C3a anaphylatoxin chemotactic receptor (Homo sapiens)
Assay: Inhibition of complement component 3a (C3a) binding to C3a receptor in human neutrophil based assay
MEASUREMENT_NAME: IC50 (µM)
Answer format: numeric, µM implied, no suffix.

Exercise: What does the record list as IC50 for Clc1ccc(CC/N=C2\N=C(NCCc3ccc(Cl)cc3)c3ccccc32)cc1 ?
Solution: 7.16

Exercise: Same question, Cc1ccc(CC/N=C2\N=C(NCCc3ccc(C)cc3)c3ccccc32)cc1 this time
Solution: 6.14

Exercise: Quick one: CCCOc1ccc2c(c1)/C(=N/CCc1ccc(F)cc1)N=C2NCCc1ccc(F)cc1
Solution: 5.97

Exercise: Next record, please: Clc1cccc(CC/N=C2\N=C(NCCc3cccc(Cl)c3)c3ccccc32)c1
Solution: 7.48

Exercise: Entry to check: Fc1ccc(CC/N=C2\N=C(NCCc3ccc(F)cc3)c3cnccc32)cc1
Solution: 13.4

Exercise: Also CC(C/N=C1\N=C(NCC(C)c2ccc(Cl)cc2)c2ccccc21)c1ccc(Cl)cc1 (stereo not given) , if possible.
Solution: 5.9

Exercise: What about this compound? CN(C)CCOc1ccc2c(c1)/C(=N/CCc1ccc(F)cc1)N=C2NCCc1ccc(F)cc1
Solution: 5.36

Exercise: // same read-out, input: Cc1ccc(C/N=C2\N=C(NCc3ccc(C)cc3)c3ccccc32)cc1
Solution: 1.7

Exercise: // query: CC(C)NC1=N/C(=N\CCc2ccc(Cl)cc2)c2ccccc21
Solution: 8.45

Exercise: Now consider COc1ccc2c(c1)/C(=N/CCc1ccc(C)cc1)N=C2NCCc1ccc(C)cc1 and answer again.
Solution: 12.6

###

Would you mind telling me the reported IC50 of each entry?
Target: C3a anaphylatoxin chemotactic receptor (Homo sapiens, UniProt Q16581)
Sequence (Q16581 whole entry): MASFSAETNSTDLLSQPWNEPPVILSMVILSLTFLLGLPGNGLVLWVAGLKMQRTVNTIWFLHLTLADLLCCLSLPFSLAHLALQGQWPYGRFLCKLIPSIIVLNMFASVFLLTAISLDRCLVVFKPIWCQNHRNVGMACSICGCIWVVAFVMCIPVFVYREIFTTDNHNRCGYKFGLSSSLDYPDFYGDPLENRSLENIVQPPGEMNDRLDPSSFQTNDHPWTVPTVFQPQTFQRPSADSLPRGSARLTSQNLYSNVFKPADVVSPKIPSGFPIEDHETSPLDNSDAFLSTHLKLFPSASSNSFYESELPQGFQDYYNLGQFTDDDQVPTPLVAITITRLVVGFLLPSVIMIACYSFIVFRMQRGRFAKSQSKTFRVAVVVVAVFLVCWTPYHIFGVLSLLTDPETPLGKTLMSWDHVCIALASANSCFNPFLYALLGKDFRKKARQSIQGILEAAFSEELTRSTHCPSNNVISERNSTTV
Test: Inhibition of complement component 3a (C3a) binding to C3a receptor in human neutrophil based assay
Use µM as the unit, but write only the number.

Exercise: May I ask what IC50 has been recorded for Cc1ccc(CC/N=C2\N=C(NCCc3ccc(C)cc3)c3cc(Cl)c(Cl)cc32)cc1 ?
Solution: 48

Exercise: Next entry: CC(=O)Nc1ccc2c(c1)/C(=N\Cc1ccc(C)cc1)N=C2NCc1ccc(C)cc1
Solution: 32

Exercise: Please answer likewise for Fc1ccc(CC/N=C2\N=C(NCCc3ccc(F)cc3)c3ccccc32)cc1
Solution: 11.4

###

Assign inhibition to each entry below.
Test system: Rattus norvegicus
Test: Percent inhibition against C3a receptor induced wheal formation in rat at the dose of 30 mg/Kg administered orally
# number only, unit % dropped from output

Exercise: Any idea what its inhibition is? The compound is Clc1ccc(CC/N=C2\N=C(NCCc3ccc(Cl)cc3)c3ccccc32)cc1
Solution: 63

Exercise: Next compound up: Cc1ccc(C/N=C2\N=C(NCc3ccc(C)cc3)c3ccccc32)cc1
Solution: 61

Exercise: Thanks! And Fc1ccc(CC/N=C2\N=C(NCCc3ccc(F)cc3)c3ccccc32)cc1 ?
Solution: 72

Exercise: Also, Clc1cccc(CC/N=C2\N=C(NCCc3cccc(Cl)c3)c3ccccc32)c1 please.
Solution: 55

Exercise: Here is the next compound: Cc1ccc(CC/N=C2\N=C(NCCc3ccc(C)cc3)c3ccccc32)cc1
Solution: 67
